# Tested on: COLO 205
# Test: NCI tumour cell line growth inhibition, 48 h
Counter-ions that a name gives are not always drawn. Active and inactive are the calls of the source. No stated cut-off is given here; in the data, active = GI50 up to about 1.1 µM and inactive = higher.
Outcome (select one): active, inactive

What call does the record list for `COc1ccc(Cc2nc3cc(C(F)(F)F)ccc3n2CCCN(C)C)cc1` ?
inactive

Give the logged outcome of this assay for the following compound: Cc1cc2c(c3oc(C4(C)OC4C4OC4C)cc(=O)c13)C(=O)c1c(O)c(C3CC(C)(N(C)C)C(O)C(C)O3)cc(C3CC(N(C)C)C(O)C(C)O3)c1C2=O (stereo not given)
active

Tell me the recorded outcome of this test for `COc1cc(/C=C2/C[C@H]3[C@@H]4CCC5=CC(=O)CC[C@]5(C)[C@H]4CC[C@]3(C)NC2=O)cc(OC)c1OC` .
inactive

// param item: COc1ccc(C(c2ccccc2)(c2ccc(OC)cc2)N2C(=O)NC3C(CCCCC(=O)NCCCCCCOP(OCCC#N)N(C(C)C)C(C)C)SCC32)cc1 (stereo not given) ; yields the recorded call
inactive

Write down the call the test reported for this compound. Item: Cc1cc(C)c2c(=O)n(CC(O)CN3CCN(c4ncccn4)CC3)sc2n1 (stereo not given)
inactive

Query: recorded result category for COc1cc(OC)c2c(O)cc(CC(C)O)cc2c1 (stereo not given) in this test
inactive

Dear all, I need the recorded test outcome for COc1cccc(C2ON=C(c3ccccc3)N2C23CC4CC(CC(C4)C2)C3)c1 (stereo not given) , thank you.
inactive

For this compound, state the assay outcome: CCN1C/C(=C\c2ccc(Cl)cc2)C2=NN(c3ccccc3)C(c3ccc(Cl)cc3)C2C1 (stereo not given)
inactive

Status in this test for CC[C@@]1(O)C(=O)OCc2c1cc1n(c2=O)Cc2cc3c(CN(C)C)c(O)ccc3nc2-1 [TOPOTECAN HYDROCHLORIDE] ?
active

What call does the record list for `C1CCSCCCCSCCCCSCCCCSC1` ?
inactive

Just curious, what result did `CCOC(=O)CO/N=C1/C(=C2/C(=O)Nc3ccccc32)Nc2ccccc21` get here?
inactive

Please share the test call associated with C=C(C)C(=O)O[C@H]1C/C(CO)=C/CCC(=C)C(OC(C)=O)[C@H]2OC(=O)C(=C)[C@H]12 (stereo not given in full) .
inactive

Would you mind telling me which call this test gave `COc1ccc2c(=O)oc3c(OC)cc(CCN(C)C)c4c(=O)oc1c2c34` ?
inactive

// return assay outcome for Cc1nn(C(=O)Cc2ccccc2)c2c1C(c1ccccc1O)SC(=N)N2 (stereo not given)
inactive

Just curious, what result did `CC(C)(C)C(C#N)(C#N)c1ccc(C(C#N)(C#N)C(C)(C)C)nn1` get here?
inactive

Tell me the recorded outcome of this test for `CCOC(=O)/C=C/CCO[Si](C)(C)C(C)(C)C` .
inactive

Any idea what this test logged for `O=C(/C=C/c1ccc(OCCCOc2ccc(/C=C/C(=O)c3ccc(Cl)cc3)cc2)cc1)c1ccc(Cl)cc1` ?
inactive

GET /call?item= c1ccc(COC2C3COC(O3)C(OCc3ccccc3)C2OCc2ccccc2)cc1 (stereo not given) returns the recorded outcome of this test.
inactive

Hi team, can someone confirm the assay call for NC(=S)N/N=C1\CCCCC1C(O)(C(F)(F)Cl)C(F)(F)Cl (stereo not given) ?
inactive

// return assay outcome for COC(OC)C(C)CC(=O)N(C)C (stereo not given)
inactive

Could you kindly confirm the outcome this assay logged for Nc1ncnc2c(C3OC(CO)C(O)C3O)n[nH]c12 (stereo not given) ?
inactive

How was `Cc1ccc(C2=CC(=O)/C(=C\C(=O)c3ccc(Cl)cc3)O2)cc1` classified in this test?
inactive

What outcome does the record of this test show for `O=C1NI(C#Cc2ccccc2)c2ccccc21` ?
inactive

Which result was noted for this compound in the test: `COc1ccc2c(C)cc(N/N=C/c3ccc(OC)c4ccccc34)nc2c1`
inactive

Could you please tell me the result logged for Cc1cn(C2CC(n3cc(Cn4cc(I)c(=O)[nH]c4=O)nn3)C(CO)O2)c(=O)[nH]c1=O (stereo not given) in this assay?
inactive

Kindly provide the recorded test outcome for the following compound: C=C1C(=O)OC2CC3(C)C=CC(=O)C(=C)C3CC12 (stereo not given)
inactive

Assay result, entry NC1=NC(=O)C(CC(=O)Nc2ccc(Cl)cc2Cl)S1 (stereo not given) — outcome?
inactive

Hi, do you know how `COc1ccc(OC)c2sc(N3C(=O)/C(=C/Cc4ccco4)N=C3c3ccccc3)nc12` came out in this test?
inactive

Which outcome was entered for the compound `COc1cc(CNC(=O)CCCCCCCC/C=C/Br)ccc1O` in this test?
inactive

Outcome? O=C1CC2[C@@H](N3CCCC3)CCC(N1Cc1ccccc1)C2(O)O (stereo not given in full)
inactive

Please indicate how the test categorized CCCCN(CCCC)C(=O)C(=O)C(C(=O)c1ccc(OC)cc1)c1ccc(OC)cc1 (stereo not given) .
inactive

What did this assay record as the result for `CCN(C)c1nc(N(C)CC)c2nc(N(C)CC)nc(N(C)CC)c2n1` ?
inactive

Could you kindly confirm the outcome this assay logged for `COc1ccc(/C=C\c2cc(OC)c(OC)c(OC)c2)c(O)c1O` ?
inactive

# fetch the recorded call for COC(=O)C12C3C4C1C1C2C3C41C(=O)N(C(C)C)C(C)C (stereo not given) here
inactive

Test call, this compound: `C[C@@]12C(=O)OC(=O)[C@]1(C)[C@H]1CC[C@@H]2O1`
active

Please share the test call associated with C/N=C1\OC2=C3C(c4ccccc4)(O/C(=N/C)N(C)C3(c3ccccc3)OC2=O)N1C (stereo not given) .
inactive

Any idea what this test logged for COc1cc(C(O)C(=O)c2nc3ccc([N+](=O)[O-])cc3nc2O)ccc1O (stereo not given) ?
inactive

I would be grateful if you could indicate the recorded call for `c1ccc2cc3c(cc2c1)nc1ccccn13` .
inactive

Write down the call the test reported for this compound. Item: `Fc1cc(-c2cc(-c3ccccc3)no2)c(Cl)cc1Cl`
inactive

Answer briefly: the call reported for `COc1ccc2c(c1OC)C(=O)c1cnccc1C2=O` in this assay.
inactive
